test system: Staphylococcus aureus; test: Antibiofilm activity against methicillin-resistant Staphylococcus aureus ATCC BAA-44 at 5 uM relative to control; format: functional
measure: Activity
Output should be the measured figure followed by the unit it is expressed in.

Challenge: If you can, please state the reported Activity value of CCC1C(c2ccc(C(F)(F)F)cc2)=C(O)C(=O)N1c1ccc(OC)c(OC)c1 (stereo not given) .
Response given: 17%

Challenge: Now the compound CCC1C(c2ccc(C(F)(F)F)cc2)=C(O)C(=O)N1c1ccccn1 (stereo not given)
Response given: 4%

Challenge: Next record, please: CCC1C(c2ccc(C(F)(F)F)cc2)=C(O)C(=O)N1Cc1cccs1 (stereo not given)
Response given: 54%

Challenge: Proceed to O=C1C(O)=C(c2ccc(C(F)(F)F)cc2)CN1c1ccccc1
Response given: 26%

Challenge: Next compound up: CCCCCCCN1C(=O)C(O)=C(c2ccc(C(F)(F)F)cc2)C1CC (stereo not given)
Response given: 64%
